Source listed as PubChem BioAssay (NCI).

System: SNB-19 CNS
Assay: NCI-60 one-dose screen, 48 h (100 = growth as untreated, 0 = no growth, -100 = all killed)
Conditions: 10 µM unless noted
Compounds without any hit were thinned out: in the full panel of roughly 83,000, 20% have a hit.
Attribute: growth
Number only, in %; omit the unit.

These recorded examples may help you get a feel for the data.
INSERT INTO measurements (compound, measured_metric, experimental_result) VALUES
  ('O=S(=O)(Cl)c1ccccc1 (tested in a mixture with another compound)', 'growth', 100),
  ('CC1([N+](=O)[O-])COP(=O)(Nc2ccc(F)cc2)OC1 (stereo not given)', 'growth', 107),
  ('CC(=O)N(C)C1=Nc2ccc(Cl)cc2C(c2ccccc2)=[N+]([O-])C1', 'growth', 96.3),
  ('N#CC1=C(N)Oc2cc3c(cc2C1c1cccs1)OCO3 (stereo not given)', 'growth', 43.2),
  ('COc1cc(/C=C\c2cc(OC)c(OC)c(OC)c2)cc(N/C=C\C(=O)c2ccc(OC(F)(F)F)cc2)c1OC', 'growth', 74.6);

State the recorded growth for this entry: O=C1NC(=O)C(O)(C2(O)C(=O)NC(=O)NC2=O)C(=O)N1
96.1

Follow-up entry: [N-]=[N+]=NC(C(=O)O)c1ccccc1 (stereo not given)
100

Follow-up entry: O=C(Nc1ccc(S(=O)(=O)F)cc1)Oc1ccccc1
97.6

Follow-up entry: O=C(NCCNC(=O)c1ccc([As](O)O)cc1)c1ccc([As](O)O)cc1
106

Follow-up entry: CC1(C)N=C(N)N=C(N)N1c1ccc(CCCCc2ccc(Cl)cc2S(=O)(=O)F)c(Cl)c1
36.6

----------
System: UO-31 renal
Test: NCI-60 one-dose screen, 48 h (100 = growth as untreated, 0 = no growth, -100 = all killed)
Conditions: 10 µM unless noted
Compounds without any hit were thinned out: in the full panel of roughly 83,000, 20% have a hit.
Classify by measured growth: T if it is equal to or exceeds 90%, F if it is smaller.

INSERT INTO measurements (compound, class_assignment) VALUES
  ('COc1cc(C2CC(=O)Nc3nc(N)[se]c32)c(OC)c2c1OCO2 (stereo not drawn)', 'F');

Tell me whether growth is at least 90% here: Cc1cc(C)nc(C)c1.[Cl][Hg][Cl]
T

Follow-up entry: COc1ccc(C2=NN(c3ccccc3)C(c3sc(N(CCCl)CCCl)nc3Cl)C2)cc1 (stereo not drawn)
F

Follow-up entry: O=CN1N=C(c2ccccc2)CC1c1sc(N(CCCl)CCCl)nc1Cl (stereo not drawn)
F

Follow-up entry: O=[N+]([O-])c1ccccc1N1CCNCC1
F

Follow-up entry: CC1(C)N=C(N)N=C(N)N1c1ccc(CCC(=O)Nc2cccc(S(=O)(=O)F)c2)cc1
F

Follow-up entry: Oc1ccc(O)c2c1C1(Cl)C(Cl)=C(Cl)C2(Cl)C1(Cl)Cl
F

Follow-up entry: O=C(c1cccs1)C1NO[N+]([O-])=C1c1cccs1 (stereo not drawn)
F

Follow-up entry: COc1cc(CNCCc2ccc(Cl)cc2)cc(OC)c1O
F

Follow-up entry: Fc1ccc(C2=NN(c3ccccc3)C(c3sc(N(CCCl)CCCl)nc3Cl)C2)cc1 (stereo not drawn)
F

Follow-up entry: Cc1cc(CCl)c(C)cc1CCl
F

Follow-up entry: NC(=O)OCC(CO)(c1ccccc1)c1ccccc1
F

Follow-up entry: CCOCC1(CCc2ccccc2)C(=O)NC(=S)NC1=O
F

Follow-up entry: Clc1ccc(SSC(Cl)(Cl)Cl)cc1
T

Follow-up entry: NS(=O)(=O)c1nc[nH]c1[N+](=O)[O-]
F

Follow-up entry: CN1C(=O)NC(=O)C(N=Nc2ccc(Cl)cc2)C1=O (stereo not drawn)
T

Follow-up entry: C[C@@H]1CC[C@@H]2[C@@H]1[C@H](OC(=O)/C=C/C1CCCCC1)[C@]1(C3CCCCC3)C[C@@H](OC(=O)CO)[C@@]2(C)O1
F

Follow-up entry: O=C(NCCNC(=O)c1ccc([As](O)O)cc1)c1ccc([As](O)O)cc1
T

Follow-up entry: NC(Cc1ccc(O)cc1)C(=O)N/N=C/c1ccc(N(CCCl)CCCl)cc1 (stereo not drawn)
F

Follow-up entry: Nc1ccc([N+](=O)[O-])c2c1Oc1ccccc1O2
F

Follow-up entry: CNC(=O)Oc1ccccc1
T
